B1: INTS4 (parent)
chain: YSSGEFSSGRKWGDDAPKEEVDTG

# Variants of: B1
# measurement protocol: protein stability index of a GFP-peptide fusion (GPS, HEK-293T) (PSI 1-6); higher = more stable;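 further: lentivirally expressed fusions sorted by FACS into six bins by GFP to DsRed ratio, PSI derived from sequencing read proportions per bin multiplied by bin number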
# assay setup: c terminus: a fixed tail appended
Consider the following variants; for each one, report its protein stability index.
Returns: the value as a bare number; no unit string appended.

What value of protein stability index has been reported for the following variant? P17Q
2.35

What value of protein stability index has been reported for the following variant? V21K
2.8

What value of protein stability index has been reported for the following variant? T23G
2.81

What value of protein stability index has been reported for the following variant? W12F
2.96

What value of protein stability index has been reported for the following variant? E5D
3.64

What value of protein stability index has been reported for the following variant? V21G
2.94

What value of protein stability index has been reported for the following variant? G24H
2.51

What value of protein stability index has been reported for the following variant? Y1H
5.51

What value of protein stability index has been reported for the following variant? F6V
4.99

What value of protein stability index has been reported for the following variant? F6M
4.69

What value of protein stability index has been reported for the following variant? D14Q
1.41

What value of protein stability index has been reported for the following variant? G9V
3.12

What value of protein stability index has been reported for the following variant? T23V
2.39

What value of protein stability index has been reported for the following variant? D14T
1.94

What value of protein stability index has been reported for the following variant? E20N
2.35

What value of protein stability index has been reported for the following variant? D15I
1.11

What value of protein stability index has been reported for the following variant? K11S
3.02

What value of protein stability index has been reported for the following variant? T23D
2.96

What value of protein stability index has been reported for the following variant? S7H
1.92

What value of protein stability index has been reported for the following variant? G4F
3.6

What value of protein stability index has been reported for the following variant? A16W
2.01

What value of protein stability index has been reported for the following variant? D15L
2.04
